Source: ChEMBL document CHEMBL3885861

- Species on record: Rattus norvegicus
- PROTOCOL_TEXT: Open TG-GATES - Regimen: Single
- Format: toxicity, organism-based, Sprague-Dawley
- Parameters: regimen Single, gender Male, age 6 weeks
- RUN_CONDITIONS: in vivo, po, 0 mg/kg, 9 h, tissue Blood, route gavage, dose level Control
Mono reference
Output spec: scalar in %, unitless text.

Below, 3 compounds whose answers are already recorded.
COMPOUND | Mono, %
Cc1cccc(C)c1OCC(C)N (centres undefined) | 2.4
C[C@H]1O[C@H](O[C@H]2[C@H](O)[C@@H](O)[C@@H](O[C@H]3[C@H](O)[C@@H](O)C(O)O[C@@H]3CO)O[C@@H]2CO)[C@H](O)[C@@H](O)[C@@H]1N[C@H]1C=C(CO)[C@@H](O)[C@H](O)[C@H]1O (some centres undefined) | 1.8
OCCN1CCN(CCCN2c3ccccc3Sc3ccc(C(F)(F)F)cc32)CC1 | 9

Given the compound C=C(C)[C@H]1Cc2c(ccc3c2O[C@@H]2COc4cc(OC)c(OC)cc4[C@@H]2C3=O)O1 , what is its reported Mono?
8.4

Now try Cn1cc[nH]c1=S .
2.2

---

# maps each entry to its Hb
- Species: Rattus norvegicus
- PROTOCOL_TEXT: Open TG-GATES - Regimen: Daily Repeat
- Type: toxicity, organism-based, Sprague-Dawley
- Parameters: regimen Daily Repeat, gender Male, age 6 weeks
- RUN_CONDITIONS: in vivo, po, 0 mg/kg, 72 h, tissue Blood, route gavage, dose level Control, time 3 day
Write it as a number; the unit g/dL goes unstated.

GET /values?readout=Hb&item= C=C(C)[C@H]1Cc2c(ccc3c2O[C@@H]2COc4cc(OC)c(OC)cc4[C@@H]2C3=O)O1 [ROTENONE]
13.2

Next molecule: C[C@H]1C(=O)O[C@@H]2CCN3CC=C(COC(=O)[C@](C)(O)[C@]1(C)O)[C@H]23 [MONOCROTALINE]
13.5

Moving on to OCCN1CCN(CCCN2c3ccccc3Sc3ccc(C(F)(F)F)cc32)CC1 [FLUPHENAZINE]
13.6

Also CCOC(=O)C(C)(C)Oc1ccc(Cl)cc1 [CLOFIBRATE] ?
13.8

Now consider O=[N+]([O-])c1ccc(O)c([N+](=O)[O-])c1 [2,4-DINITROPHENOL] and answer again.
12.8

---

Each entry below lists one item and its recorded MCHC value.
- Species: Rattus norvegicus
- PROTOCOL_TEXT: Open TG-GATES - Regimen: Single
- Format: toxicity, organism-based, Sprague-Dawley
- Set-up: regimen Single, gender Male, age 6 weeks
- RUN_CONDITIONS: in vivo, po, 0 mg/kg, 24 h, tissue Blood, route gavage, dose level Control
Could you give me the number in %? Just the number is fine.

Would you kindly share the measured MCHC for CCOC(=O)C(C)(C)Oc1ccc(Cl)cc1 [CLOFIBRATE] ?
34.5

Try C[C@H]1C(=O)O[C@@H]2CCN3CC=C(COC(=O)[C@](C)(O)[C@]1(C)O)[C@H]23 [MONOCROTALINE] next.
34.1

And the next one, C[C@H]1O[C@H](O[C@H]2[C@H](O)[C@@H](O)[C@@H](O[C@H]3[C@H](O)[C@@H](O)C(O)O[C@@H]3CO)O[C@@H]2CO)[C@H](O)[C@@H](O)[C@@H]1N[C@H]1C=C(CO)[C@@H](O)[C@H](O)[C@H]1O (stereo partly drawn) [ACARBOSE] ?
32.8

---

- Species: Rattus norvegicus
- PROTOCOL_TEXT: Open TG-GATES - Regimen: Daily Repeat
- Format: toxicity, organism-based, Sprague-Dawley
- Set-up: regimen Daily Repeat, gender Male, age 6 weeks
- RUN_CONDITIONS: in vivo, po, 0 mg/kg, […], tissue Kidney, route gavage, dose level Control, time 14 day
In this section, each of the molecules is paired with its reported KIDNEY_L.

MOLECULE | KIDNEY_L
OCCN1CCN(CCCN2c3ccccc3Sc3ccc(C(F)(F)F)cc32)CC1 | 1.2 g
C[C@H]1O[C@H](O[C@H]2[C@H](O)[C@@H](O)[C@@H](O[C@H]3[C@H](O)[C@@H](O)C(O)O[C@@H]3CO)O[C@@H]2CO)[C@H](O)[C@@H](O)[C@@H]1N[C@H]1C=C(CO)[C@@H](O)[C@H](O)[C@H]1O (stereo partly specified) | 1.1 g
C[C@H]1C(=O)O[C@@H]2CCN3CC=C(COC(=O)[C@](C)(O)[C@]1(C)O)[C@H]23 | 1.3 g
O=C1CN(/N=C/c2ccc([N+](=O)[O-])o2)C(=O)N1 | 1.3 g
CCOC(=O)C(C)(C)Oc1ccc(Cl)cc1 [CLOFIBRATE] | 1.3 g

Given Cc1cccc(C)c1OCC(C)N (stereo unspecified) , state its recorded KIDNEY_L.
1.3 g

---

- Species: Rattus norvegicus
- PROTOCOL_TEXT: Open TG-GATES - Regimen: Single
- Type: toxicity, organism-based, Sprague-Dawley
- Parameters: regimen Single, gender Male, age 6 weeks
- RUN_CONDITIONS: in vivo, po, 0 mg/kg, 24 h, tissue Plasma, route gavage, dose level Control
Listed next: entries and their corresponding CRE.
Please reply with the bare figure in mg/dL and do not write the unit itself.

Solved cases (5 shown):
COMPOUND | UNIT_ABBREV | CRE
O=C1CN(/N=C/c2ccc([N+](=O)[O-])o2)C(=O)N1 [NITROFURANTOIN] | mg/dL | 0.4
O=[N+]([O-])c1ccc(O)c([N+](=O)[O-])c1 [2,4-DINITROPHENOL] | mg/dL | 0.4
Cc1cccc(C)c1OCC(C)N (stereo not given) [MEXILETINE] | mg/dL | 0.2
Cc1ccc2cc3c(ccc4ccccc43)c3c2c1CC3 [3-METHYLCHOLANTHRENE] | mg/dL | 0.1
OCCN1CCN(CCCN2c3ccccc3Sc3ccc(C(F)(F)F)cc32)CC1 [FLUPHENAZINE] | mg/dL | 0.5

Could you share which CRE value was measured for Cn1cc[nH]c1=S [METHIMAZOLE] ?
0.1

// repeat for C=C(C)[C@H]1Cc2c(ccc3c2O[C@@H]2COc4cc(OC)c(OC)cc4[C@@H]2C3=O)O1 [ROTENONE] and report
0.4

---

- Organism: Rattus norvegicus
- PROTOCOL_TEXT: Open TG-GATES - Regimen: Single
- Format: toxicity, organism-based, Sprague-Dawley
- Parameters: regimen Single, gender Male, age 6 weeks
- RUN_CONDITIONS: in vivo, po, 0 mg/kg, 6 h, tissue Blood, route gavage, dose level Control
Catalogue of MCHC readings, one per entry.
Your answer is read as %, so omit the unit and give the number.

The following compounds have reported results that may help.
COMPOUND | PROPERTY_MEASURED | EXPERIMENTAL_RESULT
OCCN1CCN(CCCN2c3ccccc3Sc3ccc(C(F)(F)F)cc32)CC1 | MCHC | 33.2
Cn1cc[nH]c1=S | MCHC | 35.1

Can you share its MCHC? I mean this compound: C=C(C)[C@H]1Cc2c(ccc3c2O[C@@H]2COc4cc(OC)c(OC)cc4[C@@H]2C3=O)O1
32.8

Another compound to check: Cc1ccc2cc3c(ccc4ccccc43)c3c2c1CC3
32.8

What do we get for Cc1cccc(C)c1OCC(C)N (stereo not given) ?
32.7

---

- Species on record: Rattus norvegicus
- PROTOCOL_TEXT: Open TG-GATES - Regimen: Single
- Type: toxicity, organism-based, Sprague-Dawley
- Design: regimen Single, gender Male, age 6 weeks
- RUN_CONDITIONS: in vivo, po, 0 mg/kg, 6 h, tissue Plasma, route gavage, dose level Control
PROPERTY_MEASURED: CRE (mg/dL)
Please give a number only; it is taken to be in mg/dL.

Answered cases to consult:
COMPOUND | UNIT_ABBREV | CRE
C[C@H]1O[C@H](O[C@H]2[C@H](O)[C@@H](O)[C@@H](O[C@H]3[C@H](O)[C@@H](O)C(O)O[C@@H]3CO)O[C@@H]2CO)[C@H](O)[C@@H](O)[C@@H]1N[C@H]1C=C(CO)[C@@H](O)[C@H](O)[C@H]1O (stereo not given in full) | mg/dL | 0.2
CCOC(=O)C(C)(C)Oc1ccc(Cl)cc1 [CLOFIBRATE] | mg/dL | 0.3
OCCN1CCN(CCCN2c3ccccc3Sc3ccc(C(F)(F)F)cc32)CC1 | mg/dL | 0.5

Which CRE value belongs to Cn1cc[nH]c1=S ?
0.1

Here is the next compound: C=C(C)[C@H]1Cc2c(ccc3c2O[C@@H]2COc4cc(OC)c(OC)cc4[C@@H]2C3=O)O1
0.4

Another compound to look at: Cc1ccc2cc3c(ccc4ccccc43)c3c2c1CC3
0.1

Now give it for Cc1cccc(C)c1OCC(C)N (stereo not given) too.
0.2

Same for O=C1CN(/N=C/c2ccc([N+](=O)[O-])o2)C(=O)N1
0.4

Also need C[C@H]1C(=O)O[C@@H]2CCN3CC=C(COC(=O)[C@](C)(O)[C@]1(C)O)[C@H]23 , thanks.
0.1

What about O=[N+]([O-])c1ccc(O)c([N+](=O)[O-])c1 ?
0.4
